Target: Vhr1 (UniProt P40522)
Sequence: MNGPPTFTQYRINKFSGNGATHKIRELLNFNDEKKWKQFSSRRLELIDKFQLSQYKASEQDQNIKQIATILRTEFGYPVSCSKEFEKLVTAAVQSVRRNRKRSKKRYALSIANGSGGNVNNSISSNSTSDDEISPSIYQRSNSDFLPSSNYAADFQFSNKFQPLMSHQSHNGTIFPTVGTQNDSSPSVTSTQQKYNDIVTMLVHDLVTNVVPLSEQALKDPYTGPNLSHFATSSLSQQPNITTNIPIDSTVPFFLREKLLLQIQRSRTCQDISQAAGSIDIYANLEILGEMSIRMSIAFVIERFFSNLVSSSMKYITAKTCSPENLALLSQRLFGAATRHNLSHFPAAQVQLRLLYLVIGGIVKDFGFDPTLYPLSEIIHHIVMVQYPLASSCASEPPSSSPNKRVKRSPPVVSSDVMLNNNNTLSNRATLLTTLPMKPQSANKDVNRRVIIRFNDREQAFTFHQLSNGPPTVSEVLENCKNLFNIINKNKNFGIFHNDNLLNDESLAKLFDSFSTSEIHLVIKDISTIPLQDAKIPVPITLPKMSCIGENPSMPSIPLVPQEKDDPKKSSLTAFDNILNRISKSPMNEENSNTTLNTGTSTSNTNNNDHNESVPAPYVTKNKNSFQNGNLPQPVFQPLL
Experiment: PBM E-score (8-mer binding enrichment) (E-score (-0.5 to 0.5)); higher = stronger / more preferred TF binding
Details: protein concentration: 200 nM; construct: GST-full length
Over roughly 33,000 sequences, “E-score (-0.5 to 0.5)” has its median near -0.012; the highest 2% begin near 0.27. For the sample, the highest values were picked, then their nearest neighbours and some sequences at random.
MEASURED ATTRIBUTE: PBM E-score
Give bare numbers.

• GATAGTCC = 0.0259
• ACCAACAT = 0.157
• ACCAACCA = 0.163
• ACCCATGA = 0.287
• ACCAACAA = 0.359

List the reported PBM E-score of each sequence below.
1. CATAGTCG
2. AATAGTCA
3. AGGACTCC
4. CGGACTCC
5. CCCAACTC

1: 0.238; 2: 0.344; 3: 0.129; 4: 0.2; 5: 0.134

====

Molecular target: Vhr1 (UniProt P40522)
Sequence: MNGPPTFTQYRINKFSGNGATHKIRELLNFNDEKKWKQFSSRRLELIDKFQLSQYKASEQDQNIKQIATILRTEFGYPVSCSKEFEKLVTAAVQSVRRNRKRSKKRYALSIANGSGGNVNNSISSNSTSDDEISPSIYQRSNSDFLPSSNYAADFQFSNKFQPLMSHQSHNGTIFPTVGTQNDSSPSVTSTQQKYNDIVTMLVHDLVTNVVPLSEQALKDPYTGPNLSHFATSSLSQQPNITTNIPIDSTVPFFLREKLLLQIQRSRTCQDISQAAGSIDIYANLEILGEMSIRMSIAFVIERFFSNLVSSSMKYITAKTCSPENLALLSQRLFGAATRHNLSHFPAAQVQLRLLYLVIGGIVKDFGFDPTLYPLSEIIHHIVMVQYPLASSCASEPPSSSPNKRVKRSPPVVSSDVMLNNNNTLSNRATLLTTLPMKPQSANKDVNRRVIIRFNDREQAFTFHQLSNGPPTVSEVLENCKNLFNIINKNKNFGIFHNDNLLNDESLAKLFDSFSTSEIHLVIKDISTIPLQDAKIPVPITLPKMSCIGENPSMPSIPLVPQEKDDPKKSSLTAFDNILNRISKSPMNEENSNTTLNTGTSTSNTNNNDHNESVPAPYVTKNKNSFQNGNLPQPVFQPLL
Experiment: PBM E-score (8-mer binding enrichment) (E-score (-0.5 to 0.5)); higher = stronger / more preferred TF binding
Settings: protein concentration: 200 nM; construct: GST-full length
Over roughly 33,000 sequences, “E-score (-0.5 to 0.5)” has its median near -0.012; the highest 2% begin near 0.27. What follows is part of a selection rich in the highest values, with near analogues and random picks from the rest.
For each of the sequences below, state its PBM E-score.
Give bare numbers.

Worked examples follow.
- AGTGATAC: 0.237
- ATGATTGC: 0.345
- ATAGTTGA: 0.0409
- GGGATCAA: -0.109
- CCACACCC: 0.197

List the reported PBM E-score of each sequence below.
1. CTGATTGC
2. GTGATTGA
3. GTAGTTGA
4. ATGCATAG

1: 0.035; 2: 0.329; 3: 0.277; 4: 0.013
